The origin of these recorded values is ChEMBL document CHEMBL2406965.

# target.desc: Chymotrypsinogen B (Homo sapiens, UniProt P17538)
# Sequence (P17538 34-164 limits assumed, other chains not shown): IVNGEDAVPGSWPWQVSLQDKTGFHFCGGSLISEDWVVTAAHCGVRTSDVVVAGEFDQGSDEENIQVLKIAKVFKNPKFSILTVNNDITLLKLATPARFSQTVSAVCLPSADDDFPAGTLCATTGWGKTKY
# Sequence (P17538 167-263 limits assumed, other chains not shown): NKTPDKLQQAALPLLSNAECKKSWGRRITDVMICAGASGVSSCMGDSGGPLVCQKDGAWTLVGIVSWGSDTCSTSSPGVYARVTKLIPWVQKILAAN
attribute.measured: IC50 (nM)
Express the result in nM but write the number alone.

Solved cases below.
{"columns": ["entry.smiles", "unit.name", "measurement"],
 "data": [
  ["COC(=O)c1nn(C(=O)c2cccc(C)c2)c2cc([N+](=O)[O-])ccc12", "nM", 38],
  ["COC(=O)c1nn(C(=O)c2ccccc2)c2ccc([N+](=O)[O-])cc12", "nM", 31]
]}

Here's the next entry for you.
Write down IC50 measured for item "CCOC(=O)c1nn(C(=O)c2ccsc2)c2ccc([N+](=O)[O-])cc12"
46

* * *

# target.desc: Neutrophil elastase (Homo sapiens, UniProt P08246)
# Sequence (P08246 whole entry): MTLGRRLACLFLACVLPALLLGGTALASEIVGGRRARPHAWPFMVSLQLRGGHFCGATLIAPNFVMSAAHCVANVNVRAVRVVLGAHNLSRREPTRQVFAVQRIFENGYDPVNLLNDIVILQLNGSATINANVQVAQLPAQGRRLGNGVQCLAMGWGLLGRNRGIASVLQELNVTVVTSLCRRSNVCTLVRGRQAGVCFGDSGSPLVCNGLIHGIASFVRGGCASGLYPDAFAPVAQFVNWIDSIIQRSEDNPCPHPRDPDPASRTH
# run.description: Inhibition of human neutrophil elastase using N-methylsuccinyl-Ala-Ala-Pro-Val-7-amino-4-methylcoumarin as substrate measured every 30 seconds for 10 mins by fluorescence microplate reader analysis
attribute.measured: pIC50
In textbook form, pIC50 equals minus log to base ten of the concentration in mol/L.

{"columns": ["entry.smiles", "target.desc", "measurement"],
 "data": [
  ["CCOC(=O)c1nn(C(=O)c2ccsc2)c2ccc(Br)cc12", "Neutrophil elastase (Homo sapiens, UniProt P08246)", 6.59]
]}

Write down pIC50 measured for item "CCOC(=O)c1nn(C(=O)c2cccc(C)c2)c2ccc(NC(C)=O)cc12"
7.52

Write down pIC50 measured for item "COC(=O)c1nn(C(=O)c2cccc(C)c2)c2cc([N+](=O)[O-])ccc12"
7.70

Write down pIC50 measured for item "CCOC(=O)c1nn(C(=O)c2ccccc2)c2ccc(OC)cc12"
7.10

Write down pIC50 measured for item "CCOC(=O)c1nn(C(=O)c2ccccc2)c2ccc([N+](=O)[O-])cc12"
7.70
